Assay System: T1, VPAC1 receptor (UniProt P32241 31-457, limits assumed)
T1 sequence (looked up): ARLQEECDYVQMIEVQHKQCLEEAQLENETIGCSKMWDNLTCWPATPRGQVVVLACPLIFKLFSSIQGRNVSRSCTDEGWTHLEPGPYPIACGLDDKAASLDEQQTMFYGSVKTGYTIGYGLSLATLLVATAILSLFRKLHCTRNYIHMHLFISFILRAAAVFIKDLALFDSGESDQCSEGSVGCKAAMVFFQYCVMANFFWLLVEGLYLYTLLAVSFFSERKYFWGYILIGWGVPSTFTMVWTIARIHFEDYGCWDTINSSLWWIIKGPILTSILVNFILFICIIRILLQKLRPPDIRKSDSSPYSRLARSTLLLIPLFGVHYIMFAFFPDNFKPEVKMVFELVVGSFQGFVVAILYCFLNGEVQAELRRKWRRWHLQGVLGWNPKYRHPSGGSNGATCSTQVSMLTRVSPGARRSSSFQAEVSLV
Experimental Protocol: cell-based or functional assay
Ends that are not written are not given here.
Property Measured: EC50 (nM), cAMP SPA

Binder	Experimental Value
HSDAVFTDQYTRLRKQVAAKKYLQSIKQKRYC (43 kD PEG on the C-terminal Cys via maleimide (thioether) linkage) [P12 plus 43 kD PEG]	> 1000 nM
HSDAVFTDQYTRLRKQVAAKKYLQSIKQKRY [P5]	232 nM
HTEAVFTDQYTRLRKQVAAKKYLQSIKQKRY [P7]	> 1000 nM
Ac-HTDAVFTDQYTRLRKQVAAKKYLQSIKQKRY (ends and bridges not checked) [P8]	130 nM
HSDAVFTDQYTRLRKQVAAKKYLQSIKQKRYC (22 kD PEG on the C-terminal Cys via maleimide (thioether) linkage) [P12 plus 22 kD PEG]	> 1000 nM
HSDAVFTDQYTRLRKQVAAKKYLQSIKQKRYC (ends and bridges not checked) [P12]	> 1000 nM
